- System: 6C3HED lymphosarcoma
- test protocol: animal or person
- Format: in vivo
- particulars: oral, 25 mg/kg, BIDX 8
metric: Tox/Tot (mice which died / total)

>>> result("NS(=O)(=NC(=O)Nc1ccc(Cl)cc1)c1ccc(Cl)cc1 (centres unmarked) [Example 27]")
"0/10"
>>> result("CCc1ccc(S(=N)(=O)NC(=O)Nc2ccc(Cl)cc2)cc1 (centres unmarked) [Example 33]")
"2/10"
>>> result("Cc1ccc(S(=N)(=O)NC(=O)Nc2ccc(Cl)cc2)cc1C (centres unmarked) [Example 36]")
"2/8"
>>> result("CC(=O)OCc1ccc(S(=N)(=O)NC(=O)Nc2ccc(Cl)cc2)cc1 (centres unmarked) [Example 49]")
"0/10"
>>> result("CN=S(=O)(NC(=O)Nc1ccc(Cl)cc1)c1ccc(C)cc1 (centres unmarked) [Example 3]")
"0/10"
